System: Staphylococcus lugdunensis
Assay: Antimicrobial susceptibility of Staphylococcus lugdunensis isolates by broth microdilution method
Assay type: functional
# reported MBC90; entries follow
Kindly provide the numeric value in µg/mL only, without the unit symbol.

> print(dat)
                                     smiles             measured.target  measured.value
1  COc1c(N2C[C@@H]3CCCN[C@@H]3C2)c(F)cc2c(=O)c(C(=O)O)cn(C3CC3)c12  Staphylococcus lugdunensis            0.25

Let's switch to this compound now.
Exercise: For the compound Cc1nnc(SCC2=C(C(=O)O)N3C(=O)[C@@H](NC(=O)Cn4cnnn4)[C@H]3SC2)s1 , give its measured MBC90 value.
Key: 1

* * *

# Lookup of reported BBC keyed by entry
Tested on: Staphylococcus lugdunensis
Assay: Antimicrobial susceptibility of Staphylococcus lugdunensis IDRL5258 biofilms after 24 hrs assessed as bacterial regrowth
Format: functional

Please review the following examples before continuing.
smiles	BBC
Cc1nnc(SCC2=C(C(=O)O)N3C(=O)[C@@H](NC(=O)Cn4cnnn4)[C@H]3SC2)s1	>128 µg/mL
CN(C)[C@@H]1C(O)=C(C(N)=O)C(=O)[C@@]2(O)C(O)=C3C(=O)c4c(O)cccc4[C@@](C)(O)[C@H]3C[C@@H]12	64 µg/mL
CN[C@H](CC(C)C)C(=O)N[C@H]1C(=O)N[C@@H](CC(N)=O)C(=O)N[C@H]2C(=O)N[C@H]3C(=O)N[C@H](C(=O)N[C@H](C(=O)O)c4cc(O)cc(O)c4-c4cc3ccc4O)[C@H](O)c3ccc(c(Cl)c3)Oc3cc2cc(c3O[C@@H]2O[C@H](CO)[C@@H](O)[C@H](O)[C@H]2O[C@H]2C[C@](C)(N)[C@H](O)[C@H](C)O2)Oc2ccc(cc2Cl)[C@H]1O	>128 µg/mL
CC(=O)NC[C@H]1CN(c2ccc(N3CCOCC3)c(F)c2)C(=O)O1	>128 µg/mL

Shift focus to the following entry.
Exercise: Name the recorded BBC of the item CO[C@H]1/C=C/O[C@@]2(C)Oc3c(C)c(O)c4c(O)c(c(/C=N/N5CCN(C)CC5)c(O)c4c3C2=O)NC(=O)/C(C)=C\C=C\[C@H](C)[C@H](O)[C@@H](C)[C@@H](O)[C@@H](C)[C@H](OC(C)=O)[C@@H]1C in your answer.
Key: 8 µg/mL

* * *

Tested on: Staphylococcus lugdunensis
Assay: Antimicrobial susceptibility of Staphylococcus lugdunensis IDRL856 biofilms after 24 hrs assessed as bacterial regrowth
Format: functional
measured.endpoint: BBC (µg/mL)
Please reply with the bare figure in µg/mL and do not write the unit itself.

molecule	measured.target	measured.value
CO[C@H]1/C=C/O[C@@]2(C)Oc3c(C)c(O)c4c(O)c(c(/C=N/N5CCN(C)CC5)c(O)c4c3C2=O)NC(=O)/C(C)=C\C=C\[C@H](C)[C@H](O)[C@@H](C)[C@@H](O)[C@@H](C)[C@H](OC(C)=O)[C@@H]1C [RIFAMPIN]	Staphylococcus lugdunensis	8
CCCCCCCCCC(=O)N[C@@H](Cc1c[nH]c2ccccc12)C(=O)N[C@H](CC(N)=O)C(=O)N[C@@H](CC(=O)O)C(=O)N[C@@H]1C(=O)NCC(=O)N[C@@H](CCCN)C(=O)N[C@@H](CC(=O)O)C(=O)N[C@H](C)C(=O)N[C@@H](CC(=O)O)C(=O)NCC(=O)N[C@H](CO)C(=O)N[C@@H]([C@H](C)CC(=O)O)C(=O)N[C@@H](CC(=O)c2ccccc2N)C(=O)O[C@@H]1C	Staphylococcus lugdunensis	16
CCOc1ccc2ccccc2c1C(=O)N[C@@H]1C(=O)N2[C@@H]1SC(C)(C)[C@@H]2C(=O)O [NAFCILLIN]	Staphylococcus lugdunensis	16
CN(C)[C@@H]1C(O)=C(C(N)=O)C(=O)[C@@]2(O)C(O)=C3C(=O)c4c(O)cccc4[C@@](C)(O)[C@H]3C[C@@H]12 [TETRACYCLINE]	Staphylococcus lugdunensis	128

Exercise: Report measured BBC; entry is COc1c(N2C[C@@H]3CCCN[C@@H]3C2)c(F)cc2c(=O)c(C(=O)O)cn(C3CC3)c12 [MOXIFLOXACIN]
Key: 0.25

* * *

Listed below: BBC values for each entry.
Test system: Staphylococcus lugdunensis
Experiment: Antimicrobial susceptibility of Staphylococcus lugdunensis IDRL2622 biofilms after 24 hrs assessed as bacterial regrowth
Assay type: functional
Could you give me the number in µg/mL? Just the number is fine.

Exercise: Give recorded BBC. Cc1nnc(SCC2=C(C(=O)O)N3C(=O)[C@@H](NC(=O)Cn4cnnn4)[C@H]3SC2)s1
Key: 2

Exercise: Tell us which BBC value is on record for CCOc1ccc2ccccc2c1C(=O)N[C@@H]1C(=O)N2[C@@H]1SC(C)(C)[C@@H]2C(=O)O
Key: 8

Exercise: Answer with the recorded BBC of COc1c(N2C[C@@H]3CCCN[C@@H]3C2)c(F)cc2c(=O)c(C(=O)O)cn(C3CC3)c12 only.
Key: 2

Exercise: Give the measured BBC for CCCCCCCCCC(=O)N[C@@H](Cc1c[nH]c2ccccc12)C(=O)N[C@H](CC(N)=O)C(=O)N[C@@H](CC(=O)O)C(=O)N[C@@H]1C(=O)NCC(=O)N[C@@H](CCCN)C(=O)N[C@@H](CC(=O)O)C(=O)N[C@H](C)C(=O)N[C@@H](CC(=O)O)C(=O)NCC(=O)N[C@H](CO)C(=O)N[C@@H]([C@H](C)CC(=O)O)C(=O)N[C@@H](CC(=O)c2ccccc2N)C(=O)O[C@@H]1C
Key: 1

Exercise: Supply BBC value. Item: CN(C)[C@@H]1C(O)=C(C(N)=O)C(=O)[C@@]2(O)C(O)=C3C(=O)c4c(O)cccc4[C@@](C)(O)[C@H]3C[C@@H]12
Key: 128

Exercise: Tell me BBC reported for CO[C@H]1/C=C/O[C@@]2(C)Oc3c(C)c(O)c4c(O)c(c(/C=N/N5CCN(C)CC5)c(O)c4c3C2=O)NC(=O)/C(C)=C\C=C\[C@H](C)[C@H](O)[C@@H](C)[C@@H](O)[C@@H](C)[C@H](OC(C)=O)[C@@H]1C
Key: 64

* * *

System: Staphylococcus lugdunensis
Test: Antimicrobial susceptibility of Staphylococcus lugdunensis IDRL5258 biofilms after 24 hrs assessed as bacterial regrowth
Type: functional
measured.endpoint: BBC (µg/mL)
// units = µg/mL; emit number, no label

compound	measured.target	BBC / µg/mL
CCOc1ccc2ccccc2c1C(=O)N[C@@H]1C(=O)N2[C@@H]1SC(C)(C)[C@@H]2C(=O)O [NAFCILLIN]	Staphylococcus lugdunensis	0.5

Exercise: Read the entry CCCCCCCCCC(=O)N[C@@H](Cc1c[nH]c2ccccc12)C(=O)N[C@H](CC(N)=O)C(=O)N[C@@H](CC(=O)O)C(=O)N[C@@H]1C(=O)NCC(=O)N[C@@H](CCCN)C(=O)N[C@@H](CC(=O)O)C(=O)N[C@H](C)C(=O)N[C@@H](CC(=O)O)C(=O)NCC(=O)N[C@H](CO)C(=O)N[C@@H]([C@H](C)CC(=O)O)C(=O)N[C@@H](CC(=O)c2ccccc2N)C(=O)O[C@@H]1C and write its reported BBC.
Key: 16

* * *

System: Staphylococcus lugdunensis
Assay: Effect on biofilm formation of Staphylococcus lugdunensis assessed as percent non-biofilm forming isolates
Format: functional
Design: concentration or dose not given beside the values
Activity below 20% gives f; Activity at or above it gives t.

Study these solved cases before continuing.
compound	assigned.label
CCOc1ccc2ccccc2c1C(=O)N[C@@H]1C(=O)N2[C@@H]1SC(C)(C)[C@@H]2C(=O)O [NAFCILLIN]	f
CCCCCCCCCC(=O)N[C@@H](Cc1c[nH]c2ccccc12)C(=O)N[C@H](CC(N)=O)C(=O)N[C@@H](CC(=O)O)C(=O)N[C@@H]1C(=O)NCC(=O)N[C@@H](CCCN)C(=O)N[C@@H](CC(=O)O)C(=O)N[C@H](C)C(=O)N[C@@H](CC(=O)O)C(=O)NCC(=O)N[C@H](CO)C(=O)N[C@@H]([C@H](C)CC(=O)O)C(=O)N[C@@H](CC(=O)c2ccccc2N)C(=O)O[C@@H]1C	t
Cc1nnc(SCC2=C(C(=O)O)N3C(=O)[C@@H](NC(=O)Cn4cnnn4)[C@H]3SC2)s1 [CEFAZOLIN]	t

From here, focus on the item given below.
Exercise: Please tell me: is the compound CO[C@H]1/C=C/O[C@@]2(C)Oc3c(C)c(O)c4c(O)c(c(/C=N/N5CCN(C)CC5)c(O)c4c3C2=O)NC(=O)/C(C)=C\C=C\[C@H](C)[C@H](O)[C@@H](C)[C@@H](O)[C@@H](C)[C@H](OC(C)=O)[C@@H]1C [RIFAMPIN] at or over 20% in terms of Activity?
Key: t

* * *

Tested on: Staphylococcus lugdunensis
Assay: Effect on biofilm formation of Staphylococcus lugdunensis assessed as percent non-biofilm forming isolates
Type: functional
Parameters: concentration or dose not given beside the values
measured.endpoint: Activity (%)
Express the result in % but write the number alone.

Reference set, count: 2
smiles	measured.endpoint	measured.value
CN(C)[C@@H]1C(O)=C(C(N)=O)C(=O)[C@@]2(O)C(O)=C3C(=O)c4c(O)cccc4[C@@](C)(O)[C@H]3C[C@@H]12	Activity	0
COc1c(N2C[C@@H]3CCCN[C@@H]3C2)c(F)cc2c(=O)c(C(=O)O)cn(C3CC3)c12	Activity	33

Proceeding to the next compound to report its Activity.
Exercise: Give the reported Activity for this compound. CN[C@H](CC(C)C)C(=O)N[C@H]1C(=O)N[C@@H](CC(N)=O)C(=O)N[C@H]2C(=O)N[C@H]3C(=O)N[C@H](C(=O)N[C@H](C(=O)O)c4cc(O)cc(O)c4-c4cc3ccc4O)[C@H](O)c3ccc(c(Cl)c3)Oc3cc2cc(c3O[C@@H]2O[C@H](CO)[C@@H](O)[C@H](O)[C@H]2O[C@H]2C[C@](C)(N)[C@H](O)[C@H](C)O2)Oc2ccc(cc2Cl)[C@H]1O
Key: 47
